# subject_of_test: human IGF-1 receptor (IGF-1R) (human, UniProt P08069)
# assay_explanation: competition, TR-FRET vs b-20E2
pIC50: −log10 of the molar value.
parameter_measured: pIC50

| binder | pIC50 |
| --- | --- |
| CWARPCGDAANFYDWFVQQAS [C1 (D112)] | 9.06 |
| DYKDFYDAIDQLVRGSARAGGTRD [20E2 (D118)] | 6.98 |
| LDALDRLMRYFEERPSL [S173] | 5.20 |
| SAKNFYDWFVKK [A6] | 4.51 |
| WLEQERAWIWCEIQGSGCRA [S263 / D8B12] | 4.95 |

[I] GSLDESFYDWFERQLG [S386 / RP9 without terminal lysines]
[II] FHENFYDWFVQRVSKK [H2C (D117)]
Q: I need your help: which of the pair I , II has higher pIC50? I would appreciate it if you answered with the label of your choice.
Ans: I
(I: 7.41, II: 6.34)
